# combination Emax per entry
system: MIA-PaCa-2 (Pancreatic Carcinoma); assay: combination Emax (second highest fraction inhibited in the dose matrix, 72 h); higher = more inhibition; extreme values may be limits of the assay
Enter a number only.

Study these solved cases before continuing.
compound="CCN(CCO)CCCOc1ccc2c(Nc3cc(CC(=O)Nc4cccc(F)c4)[nH]n3)ncnc2c1 [AZD2811] + C[C@@H]1COCCN1C2=NC(=NC(=C2)C3(CC3)[S@](=N)(=O)C)C4=C5C=CNC5=NC=C4 [AZD6738] (first compound max 1 µM, 7x7, partner max 10 µM)" observed_property="combination Emax" numeric_result=0.644
compound="Cc1cc2ncnn2cc1Nc1ncc2c(n1)n(C1CCOCC1)c(=O)n2C [AZD7648] + O=C(c1cc(Cc2n[nH]c(=O)c3ccccc23)ccc1F)N1CCN(C(=O)C2CC2)CC1 [Olaparib] (first compound max 10 µM, 7x7, partner max 10 µM)" observed_property="combination Emax" numeric_result=0.22
compound="CS(=O)(=O)CCNCc1ccc(-c2ccc3ncnc(Nc4ccc(OCc5cccc(F)c5)c(Cl)c4)c3c2)o1 [Lapatinib] + Cn1cnc2c(F)c(Nc3ccc(Br)cc3Cl)c(C(=O)NOCCO)cc21 [Selumetinib] (first compound max 10 µM, 7x7, partner max 10 µM)" observed_property="combination Emax" numeric_result=0.57

Then this compound:
For the compound shown here, COc1cc2ncnc(Nc3ccc(F)c(Cl)c3)c2cc1OCCCN1CCOCC1 [Gefitinib] + CC(C)n1c(=O)n(C)c2cnc3cc(F)c(-c4ccc(OCCCN5CCCCC5)nc4)cc3c21 [AZD1390] (first compound max 10 µM, 7x7, partner max 0.3 µM) , give the reported combination Emax. 0.208
